System: Aspergillus niger
test: Inhibition of Aspergillus niger beta-glucosidase at 1000 uM
endpoint-name: inhibition (%)
Please give a number only; it is taken to be in %.

Example results:
>  <molecule-smiles>
O[C@H]1CCCN2C[C@H](O)[C@H]12

>  <endpoint-name>
inhibition

>  <units-text>
%

>  <number>
0

$$$$
>  <molecule-smiles>
O=C1CC[C@H](O)[C@H]2[C@@H](O)CN12

>  <endpoint-name>
inhibition

>  <units-text>
%

>  <number>
1.2

$$$$
>  <molecule-smiles>
OC[C@H](O)[C@@H]1NC[C@@H]1O

>  <endpoint-name>
inhibition

>  <units-text>
%

>  <number>
0.4

$$$$
>  <molecule-smiles>
O[C@@H]1[C@H](O)[C@H]2[C@@H](O)CN2C[C@H]1O

>  <endpoint-name>
inhibition

>  <units-text>
%

>  <number>
1.8

$$$$

Prompt: Quote inhibition with test system Aspergillus niger for OC[C@H]1NC[C@@H](O)[C@H](O)[C@@H]1O
Response: 1.8

* * *

Tested on: Oryza sativa
test: Inhibition of rice alpha-glucosidase at 1000 uM
Readings of inhibition for the listed compounds
Please give a number only; it is taken to be in %.

>  <molecule-smiles>
O=C1CC[C@H](O)[C@H]2[C@@H](O)CN12

>  <inhibition / %>
2.7

$$$$
>  <molecule-smiles>
OC[C@H]1NC[C@@H](O)[C@H](O)[C@@H]1O

>  <inhibition / %>
7.2

$$$$
>  <molecule-smiles>
OC[C@H](O)[C@@H]1NC[C@@H]1O

>  <inhibition / %>
12.1

$$$$

Prompt: Specify reported inhibition for the compound shown: O[C@H]1CCCN2C[C@H](O)[C@H]12
Response: 0

Prompt: Specify reported inhibition for the compound shown: O[C@@H]1[C@H](O)[C@H]2[C@@H](O)CN2C[C@H]1O
Response: 13.8

* * *

Tested on: Coffea
test: Inhibition of coffee beans alpha-galactosidase at 1000 uM
endpoint-name: inhibition (%)
Please give a number only; it is taken to be in %.

>  <molecule-smiles>
OC[C@H](O)[C@@H]1NC[C@@H]1O

>  <target-of-assay>
Coffea

>  <inhibition, %>
7.6

$$$$
>  <molecule-smiles>
O=C1CC[C@H](O)[C@H]2[C@@H](O)CN12

>  <target-of-assay>
Coffea

>  <inhibition, %>
0

$$$$
>  <molecule-smiles>
O[C@@H]1[C@H](O)[C@H]2[C@@H](O)CN2C[C@H]1O

>  <target-of-assay>
Coffea

>  <inhibition, %>
3.5

$$$$
>  <molecule-smiles>
OC[C@H]1NC[C@@H](O)[C@H](O)[C@@H]1O

>  <target-of-assay>
Coffea

>  <inhibition, %>
20.5

$$$$

Query compound follows.
Prompt: Specify reported inhibition for the compound shown: O[C@H]1CCCN2C[C@H](O)[C@H]12
Response: 8.4

* * *

Readings of inhibition for the listed compounds
Tested on: Prunus dulcis
test: Inhibition of almond beta-glucosidase at 1000 uM
Entry format: amount then unit.

Example results:
>  <molecule-smiles>
O[C@@H]1[C@H](O)[C@H]2[C@@H](O)CN2C[C@H]1O

>  <inhibition>
31.1%

$$$$
>  <molecule-smiles>
OC[C@H]1NC[C@@H](O)[C@H](O)[C@@H]1O

>  <inhibition>
18.8%

$$$$
>  <molecule-smiles>
O=C1CC[C@H](O)[C@H]2[C@@H](O)CN12

>  <inhibition>
0%

$$$$

Query compound follows.
Prompt: Quote inhibition with test system Prunus dulcis for O[C@H]1CCCN2C[C@H](O)[C@H]12
Response: 0%
